# Measurement Conditions: buffer; pH 7.4; 200.0 µM
Observation Type: log10 of solubility kinetic (log10 of the value in µg/mL)
Please be aware that the numbers have been log10-transformed from solubility kinetic in µg/mL.

Consider the following illustrative entries.
>  <Compound>
CN(C)C(=O)N1CCN(c2nc(-c3ccccc3)cs2)CC1

>  <Value Measured>
1.61

$$$$
>  <Compound>
COc1ccc(CC(=O)NC(C)c2ccc3ccccc3c2)cc1 (configuration not stated)

>  <Value Measured>
-0.15

$$$$
>  <Compound>
Cc1ccc(S(=O)(=O)Nc2ccccc2C(O)c2ccccc2)cc1 (configuration not stated)

>  <Value Measured>
0.79

$$$$
>  <Compound>
O=C(c1ccc2nc(Cc3ccccc3F)oc2c1)N1CCCC1

>  <Value Measured>
1.53

$$$$
>  <Compound>
O/N=C/c1ccn(-c2ccc(Br)cc2)c1

>  <Value Measured>
0.41

$$$$
>  <Compound>
Cc1ccc2ncnc(Oc3ncccc3[N+](=O)[O-])c2c1

>  <Value Measured>
1.54

$$$$

Pending compound:
Quick one: log10 of solubility kinetic for COC(=O)COc1c(Cl)cc(Cl)c2ccc(C)nc12 ?
0.83

====

# Measurement Conditions: buffer; pH 7.4; 200.0 µM
solubility kinetic reference

Consider the following illustrative entries.
>  <Compound>
COc1ccc(Cc2c(O)nc(SCC(=O)N3CCOCC3)[nH]c2=O)cc1

>  <Value Measured>
> 58.7 µg/mL

$$$$
>  <Compound>
CCN(Cc1ccncc1)C(=O)c1ccc(C)c(S(=O)(=O)N2CCCCC2)c1

>  <Value Measured>
> 60.2 µg/mL

$$$$
>  <Compound>
NC(=O)c1ccc(NC(=O)COC(=O)CC23CC4CC(CC(Br)(C4)C2)C3)cc1

>  <Value Measured>
> 67.4 µg/mL

$$$$
>  <Compound>
COc1ccc(C(=O)O)cc1S(=O)(=O)N1CCCc2ccccc21

>  <Value Measured>
> 52.1 µg/mL

$$$$
>  <Compound>
Brc1ccccc1OCCN1CCOCC1.O=C(O)C(=O)O

>  <Value Measured>
> 56.4 µg/mL

$$$$
>  <Compound>
CN(CC(=O)Nc1ccccc1Cl)C(=O)COC(=O)c1cccs1

>  <Value Measured>
> 55 µg/mL

$$$$
>  <Compound>
O=C(Nc1ccc(N2CCN(C(=O)c3cccs3)CC2)cc1)c1ccco1

>  <Value Measured>
1.6 µg/mL

$$$$
>  <Compound>
Cc1onc(-c2ccccc2Cl)c1C(=O)OCC(=O)N1CCCCC1

>  <Value Measured>
> 54.4 µg/mL

$$$$

Quick one: solubility kinetic for CN(C)S(=O)(=O)c1cccc(NC(=O)COc2ccc(S(=O)(=O)N3CCOCC3)cc2Cl)c1 ?
5.4 µg/mL

Quick one: solubility kinetic for O=C(NCc1ccc(Cl)cc1)C1CCCO1 (stereo unspecified) ?
> 36 µg/mL

Quick one: solubility kinetic for CC1=NOC(=O)/C1=C/c1ccc(O)c(Br)c1 ?
32.4 µg/mL

====

# Measurement Conditions: buffer; pH 7.4; 200.0 µM
log10 of solubility kinetic reference
Please be aware that the numbers have been log10-transformed from solubility kinetic in µg/mL.

>  <Compound>
CC(=O)c1ccc2noc(-c3ccccc3)c2c1

>  <log10 of solubility kinetic>
1.50

$$$$
>  <Compound>
COn1c(-c2ccccc2)c(C=O)c2ccccc21

>  <log10 of solubility kinetic>
0.38

$$$$
>  <Compound>
Clc1ccc(-c2ncc3ccccn23)c(Cl)c1

>  <log10 of solubility kinetic>
1.35

$$$$
>  <Compound>
Cc1cccc(/C=C(\C#N)C(=O)Nc2ccccn2)c1

>  <log10 of solubility kinetic>
1.52

$$$$
>  <Compound>
Cc1cccc(NC(=O)c2ccc3c(c2)OCCO3)n1

>  <log10 of solubility kinetic>
1.52

$$$$

Pending compound:
Quick one: log10 of solubility kinetic for CCC1Oc2ccccc2N(CC(=O)NC2CCCC2)C1=O (configuration not stated) ?
1.63

====

# Measurement Conditions: buffer; pH 7.4; 200.0 µM
Returns t if the recorded solubility kinetic is greater than or equal to 0.007 mg/mL, and f otherwise.

>  <Compound>
Cc1ccc(NC(=O)c2cc3ccccc3o2)cc1Cl

>  <Assigned Category>
f

$$$$
>  <Compound>
Cc1c(C)n(-c2ccc(Cl)cc2)c2ncnc(N)c12

>  <Assigned Category>
t

$$$$
>  <Compound>
COc1cc(OC)cc(C(=O)Nc2cccc3c2CCCC3)c1

>  <Assigned Category>
f

$$$$
>  <Compound>
Cc1cccc(NC(=O)NCC(c2ccco2)N2CCCCC2)c1 (configuration not stated)

>  <Assigned Category>
t

$$$$
>  <Compound>
COc1ccc(C)cc1NC(=O)CN1CCCC1c1ccc2c(c1)OCCCO2 (configuration not stated)

>  <Assigned Category>
t

$$$$
>  <Compound>
CCOc1ccc(NC(=O)CCn2ccnc2)cc1

>  <Assigned Category>
t

$$$$

State whether the measured solubility kinetic reaches 0.007 mg/mL, counting equality as reaching it, for O=C(NCCCO)/C(=C\c1ccco1)NC(=O)c1ccco1
t

State whether the measured solubility kinetic reaches 0.007 mg/mL, counting equality as reaching it, for CC(=O)c1cccc(NC(=S)NCc2ccccc2)c1
f

====

# Measurement Conditions: buffer; pH 7.4; 200.0 µM
Returns YES if the recorded solubility kinetic is greater than or equal to 30 µg/mL, and NO otherwise.

>  <Molecule>
O=C(COc1ccc(Cl)cc1)NCc1ccccc1

>  <Assigned Category>
NO

$$$$
>  <Molecule>
O=C(Nc1ccc(Br)c(Br)c1)C1CCCO1 (stereo unspecified)

>  <Assigned Category>
YES

$$$$
>  <Molecule>
CC(C)(C)c1ccc(/C=C/C(=O)NCCCN2CCOCC2)cc1

>  <Assigned Category>
YES

$$$$
>  <Molecule>
COc1cc(CC(=O)OCC(=O)Nc2ccc(N(C)C)cc2)cc(OC)c1OC

>  <Assigned Category>
YES

$$$$
>  <Molecule>
Cc1ccc(NC(=O)CN2C(=O)NC3(CCCc4ccccc43)C2=O)c(Cl)c1 (stereo unspecified)

>  <Assigned Category>
YES

$$$$
>  <Molecule>
Cc1ccc(OCC(=O)N2CCN(S(C)(=O)=O)CC2)cc1

>  <Assigned Category>
YES

$$$$

State whether the measured solubility kinetic reaches 30 µg/mL, counting equality as reaching it, for O=C(O)c1ccc2c(c1)C(=O)N(CCc1ccccc1)C2=O
YES

State whether the measured solubility kinetic reaches 30 µg/mL, counting equality as reaching it, for O=C(Nc1ccc(NS(=O)(=O)c2ccccc2)cc1)c1ccccc1Cl
NO

State whether the measured solubility kinetic reaches 30 µg/mL, counting equality as reaching it, for O=C(NCCNC(=O)c1ccccc1F)c1ccccn1
YES

State whether the measured solubility kinetic reaches 30 µg/mL, counting equality as reaching it, for O=C(NCCc1c[nH]c2ccccc12)c1cc([N+](=O)[O-])cc([N+](=O)[O-])c1
NO

====

# Measurement Conditions: buffer; pH 7.4; 200.0 µM
Observation Type: log10 solubility kinetic (log10 of the value in µg/mL)
Please be aware that the numbers have been log10-transformed from solubility kinetic in µg/mL.

>  <Compound>
COc1ccc(-c2cc(C(F)(F)F)nc(-n3ccnc3)n2)cc1

>  <log10 solubility kinetic>
-0.22

$$$$
>  <Compound>
CN(C(=O)c1ccc(Br)o1)C1CCCCC1

>  <log10 solubility kinetic>
1.51

$$$$
>  <Compound>
Cc1ccc(/C(N)=N/OC(=O)c2ccc3ccccc3c2)cc1

>  <log10 solubility kinetic>
0.00

$$$$
>  <Compound>
CC(C)CCC(CCN1CCCC1)c1ccc2c(c1)OCO2.O=C(O)C(=O)O (configuration not stated)

>  <log10 solubility kinetic>
1.68

$$$$
>  <Compound>
CCOC(=O)c1c(C)nsc1NCc1ccccc1

>  <log10 solubility kinetic>
0.93

$$$$

Pending compound:
Quick one: log10 solubility kinetic for CCCCNC(=O)OCCSCCS(=O)(=O)c1ccc(Cl)cc1 ?
-0.05

====

# Measurement Conditions: buffer; pH 7.4; 200.0 µM
Observation Type: solubility kinetic (µg/mL)
Answer in µg/mL, number only, no unit symbol.

Consider the following illustrative entries.
>  <Structure>
CCOC(=O)c1sc(NC(=O)c2ccc3nc[nH]c3c2)nc1C

>  <Measurement Units>
µg/mL

>  <solubility kinetic>
3.7

$$$$
>  <Structure>
Cc1ccc(O)c(Nc2ncnc3ccc([N+](=O)[O-])cc23)c1.Cl

>  <Measurement Units>
µg/mL

>  <solubility kinetic>
9.6

$$$$
>  <Structure>
NC(=O)C1CCN(c2nc3ccccc3nc2NS(=O)(=O)c2ccc(Br)cc2)CC1

>  <Measurement Units>
µg/mL

>  <solubility kinetic>
53.9

$$$$
>  <Structure>
O=C(Nc1ccccc1)OCCCc1ccccc1

>  <Measurement Units>
µg/mL

>  <solubility kinetic>
9.7

$$$$

Pending molecule:
Quick one: solubility kinetic for CCC(=O)Nc1ccc(S(=O)(=O)Nc2nccs2)cc1 ?
45.5
